system: human colon cancer cell strain HCT-116; experiment: MTT assay, inhibition of tumor cell growth in vitro, 72 h; format: cell-based; conditions: Homo sapiens, HCT-116, MTT, read-out: Antitumor proliferative activities of tumor cell (IC50, μM) HCT-116 (converted)
Test Readout: IC50 (µM)
One number for each entry, in µM.

- Compound: "Cn1nccc1-c1csc(C(=O)N[C@H]2CNCC[C@@H]2c2ccc(Cl)cc2)c1 (racemic) [Compound 32]"
  IC50 (µM): 18.1
- Compound: "Cn1ncc(Cl)c1-c1cc(C(=O)N[C@@H]2CNC(CCNS(C)(=O)=O)C[C@H]2c2ccc(F)c(F)c2)oc1Cl (some centres unmarked) [Compound 127]"
  IC50 (µM): 0.89

Your task in this section: give IC50 for each listed record.
1. Cc1sc(C(=O)N[C@H]2CNCC[C@@H]2c2ccc(F)c(F)c2)cc1-c1c(Cl)cnn1C (racemic) [Compound 5]
2. Cc1nc(C(=O)N[C@H]2CNCC[C@@H]2c2ccncc2)ccc1-c1c(Br)cnn1C (racemic) [Compound 58]
3. Cn1ncc(Cl)c1-c1cc(C(=O)N[C@@H]2CNC(CCN3CCCC(O)C3)C[C@H]2c2ccc(Cl)c(Cl)c2)oc1Cl (some centres unmarked) [Compound 115]
4. Cn1ncc(Cl)c1-c1cnc(C(=O)N[C@@H]2CNCC[C@H]2c2ccc(Cl)c(C(F)(F)F)c2)cc1Cl [Compound 95]
5. Cc1sc(C(=O)N[C@H]2CNCC[C@@H]2c2ccc(F)c(F)c2)nc1-c1c(Cl)cnn1C (racemic) [Compound 20]

stdout:
6.8
15.8
0.56
0.95
2.11

Your task in this section: give IC50 for each listed record.
1. Cn1ncc(Cl)c1-c1cc(C(=O)N[C@@H]2CNC(CC(=O)NC3CC3)C[C@H]2c2ccc(Cl)c(Cl)c2)oc1Cl (some centres unmarked) [Compound 119]
2. Cn1ncc(CO)c1-c1ccc(C(=O)N[C@@H]2CNCC[C@H]2c2cccc(F)c2)s1 [Compound 141]
3. Cn1ncc(Cl)c1-c1cc(C(=O)N[C@H]2CNCC[C@@H]2c2ccc(Cl)c(Cl)c2)oc1Cl [Compound 39]
4. CCCC1C[C@@H](c2ccc(Cl)c(Cl)c2)[C@H](NC(=O)c2cc(-c3c(Cl)cnn3C)c(Cl)o2)CN1 (some centres unmarked) [Compound 130]
5. Cn1ncc(Cl)c1-c1cc(C(=O)N[C@@H]2CNC(CC(=O)NC3CCC3)C[C@H]2c2ccc(Cl)c(Cl)c2)oc1Cl (some centres unmarked) [Compound 120]
6. Cn1ncc(Cl)c1-c1cc(C(=O)N[C@@H]2CNC(CC(=O)O)C[C@H]2c2ccc(Cl)c(Cl)c2)oc1Cl (some centres unmarked) [Compound 116]

stdout:
1.47
6.56
3.45
4.1
0.44
5.01

stdin: What value of measured IC50 is listed for Cn1ncc(Cl)c1-c1ccc(C(=O)N[C@@H]2CNCC[C@H]2c2cccc(F)c2)cc1OC(F)(F)F [Compound 85] ?
stdout: 5.56
